Molecular target: Cathepsin D (Homo sapiens)
Sequence (P07339 65-412, species assumed): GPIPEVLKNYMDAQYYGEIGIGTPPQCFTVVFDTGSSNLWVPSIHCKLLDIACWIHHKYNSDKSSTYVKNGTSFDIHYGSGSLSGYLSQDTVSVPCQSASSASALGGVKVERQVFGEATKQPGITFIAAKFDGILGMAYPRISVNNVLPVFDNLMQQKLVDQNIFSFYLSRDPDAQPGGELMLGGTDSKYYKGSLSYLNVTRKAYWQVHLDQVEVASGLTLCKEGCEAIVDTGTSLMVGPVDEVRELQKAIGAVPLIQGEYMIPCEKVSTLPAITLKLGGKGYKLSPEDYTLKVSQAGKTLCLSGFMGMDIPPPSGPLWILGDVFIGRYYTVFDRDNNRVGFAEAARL
pIC50: −log10 of the molar value.
Quantity name: pIC50

Suppose we examine the compound `CC(=O)N[C@@H](CC(C)C)C(=O)N[C@@H](CC(C)C)C(=O)N[C@H](C=O)CCCNC(=N)N` ; what pIC50 value has been reported?
< 4.63

* * *

Biological target: Pepsin (Sus scrofa, UniProt P00791)
Sequence (P00791 60-385): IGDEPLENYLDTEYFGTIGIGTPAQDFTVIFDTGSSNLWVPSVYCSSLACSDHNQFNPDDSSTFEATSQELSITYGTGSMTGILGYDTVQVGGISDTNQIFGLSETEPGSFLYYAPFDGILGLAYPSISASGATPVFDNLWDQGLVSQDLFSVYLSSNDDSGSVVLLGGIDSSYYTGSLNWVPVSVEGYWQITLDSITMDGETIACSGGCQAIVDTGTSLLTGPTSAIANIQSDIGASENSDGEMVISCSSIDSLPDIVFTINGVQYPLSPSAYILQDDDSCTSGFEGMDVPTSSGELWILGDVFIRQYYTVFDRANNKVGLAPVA
Assay: Inhibition of pepsin, solid phase tubulin immunoassay, Table I
Assay type: biochemical
Quantity name: IC50

Recorded IC50 for `CC(=O)N[C@@H](CC(C)C)C(=O)N[C@@H](CC(C)C)C(=O)N[C@H](C=O)CCCNC(=N)N` with Pepsin (Sus scrofa, UniProt P00791), please?
> 23.4 µM

* * *

Target: Hiv-1 protease (Human immunodeficiency virus type 1 group M subtype B, UniProt P04585)
pIC50: −log10 of the molar value.
Quantity name: pIC50

So what pIC50 did CC(=O)N[C@@H](CC(C)C)C(=O)N[C@@H](CC(C)C)C(=O)N[C@H](C=O)CCCNC(=N)N [Leupeptin] get with Hiv-1 protease (Human immunodeficiency virus type 1 group M subtype B, UniProt P04585)?
< 4.63
